System: HCT-116 colon
Experiment: NCI-60 one-dose screen, 48 h (100 = growth as untreated, 0 = no growth, -100 = all killed)
Conditions: 10 µM unless noted
Description: Growth inhibition of the HCT-116 human tumor cell line is measured as a screen for anti-cancer activity. Cells are grown in 96 well plates and exposed to the test compound for 48 hours. Compounds are tested at a single concentration, which is 10^-5 M for most compounds. The reported endpoint is percent growth (GI% or GIPRCNT), where numbers from 0 - 100% represent growth inhibition, and numbers from -100% - 0 represent cell death. For example, a value of 40 represents 60% growth inhibition. […]
About 83,000 compounds went through this panel and 20% of them were active in at least one assay; those are over-represented in the sample as a whole.

{"compound": "O=C1c2ccccc2C(=O)N1N1CC1c1ccccc1 (stereo unspecified)", "system name": "HCT-116 colon", "unit tag": "%", "growth": 95.4}
{"compound": "COc1ccc2c(c1)c(-c1nc(-c3c[nH]c4ncccc34)cs1)cn2CCCCN1CCOCC1", "system name": "HCT-116 colon", "unit tag": "%", "growth": 32.5}
{"compound": "Cc1cc[c-]cc1.Fc1c[c-]c(-c2ccccn2)c(F)c1.N#CCC[PH+](CCC#N)c1ccccc1.[Pt+2]", "system name": "HCT-116 colon", "unit tag": "%", "growth": 19.1}
{"compound": "N#CCC(=O)c1ccccc1", "system name": "HCT-116 colon", "unit tag": "%", "growth": 107}
{"compound": "CC[C@H](C)[C@H](NC(=O)C12CC(NC)(C1)C2)C(=O)N(C)[C@H](C[C@@H](OC(C)=O)c1nc(C(=O)N[C@@H](Cc2ccccc2)C[C@H](C)C(=O)OC)cs1)C(C)C", "system name": "HCT-116 colon", "unit tag": "%", "growth": 1.15}
{"compound": "Oc1cc(Cl)ccc1Oc1ccc(Cl)cc1Cl", "system name": "HCT-116 colon", "unit tag": "%", "growth": 6.58}
{"compound": "CCOC(=O)c1ccccc1C(=O)OCC", "system name": "HCT-116 colon", "unit tag": "%", "growth": 100}
{"compound": "CC[C@H](C)[C@H](NC(=O)CN(C)C)C(=O)N(C)[C@H](C[C@@H](OC(C)=O)c1nc(C(=O)NC23C4C5C2C2C3C4C52C(=O)OC)cs1)C(C)C (stereo partly specified)", "system name": "HCT-116 colon", "unit tag": "%", "growth": -2.36}
{"compound": "C[C@]12CC[C@H](O)C[C@@H]1CC[C@@H]1[C@@H]2CC[C@]2(C)OC(=O)CC[C@@H]12", "system name": "HCT-116 colon", "unit tag": "%", "growth": 88.6}
{"compound": "O=S(OO)c1cc(Cl)c(O)c(Cl)c1 (stereo unspecified)", "system name": "HCT-116 colon", "unit tag": "%", "growth": 105}
{"compound": "CCN1C(=O)NC(=O)C(C)(N2C(=O)c3c(F)c(F)c(F)c(F)c3C2=O)C1=O (stereo unspecified)", "system name": "HCT-116 colon", "unit tag": "%", "growth": -38.8}
